Recorded values, source patent US11787833B2.

- Measured on: 293T-Dual hSTING-R232 cells (Homo sapiens, UniProt Q86WV6, H232R)
- Construct: host or cells: 293T-Dual hSTING-R232 cells (HEK 293T)
- Sequence (Q86WV6 whole entry H232R): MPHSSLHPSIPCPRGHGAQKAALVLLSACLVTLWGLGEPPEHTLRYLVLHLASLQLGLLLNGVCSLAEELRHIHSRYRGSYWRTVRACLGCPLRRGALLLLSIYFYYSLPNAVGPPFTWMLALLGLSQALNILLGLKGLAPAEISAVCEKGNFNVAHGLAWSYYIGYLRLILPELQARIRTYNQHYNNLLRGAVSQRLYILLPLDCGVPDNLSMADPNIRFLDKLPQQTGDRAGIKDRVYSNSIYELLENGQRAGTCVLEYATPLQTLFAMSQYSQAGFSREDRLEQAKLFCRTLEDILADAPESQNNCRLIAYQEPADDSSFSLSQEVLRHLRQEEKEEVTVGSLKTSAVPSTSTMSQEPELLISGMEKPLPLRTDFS
- Assay notes: 293T R232 cell reporter assay (HEK 293T reporter assay)
- Format: cell-based
- Recorded conditions: digitonin 10 μg/mL, 30 min exposure, 20 h incubation, alkaline phosphatase reporter, read-out: EC50 [μM] IRF reporter
The following compounds are listed with their measured EC50 values.

See these solved cases before continuing.
For Nc1nc2c(ncn2C2OC34COC2C3OP(=O)(O)OCC23CC2C(n2cnc5c(N)ncnc52)C(O)C3OP(=O)(S)OC4)c(=O)[nH]1 (centres unmarked) [Compound 1-21b] the compound record lists EC50 as < 0.25 µM

For CO[C@H]1[C@H]2OP(=O)(O)OC[C@]34C[C@@H]3[C@@H](n3cnc5c(N)ncnc53)[C@H](O)[C@@H]4O[P@@](=O)(S)OC[C@H]1O[C@H]2n1nnc2c(=O)[nH]c(N)nc21 [Compound 1-35b] the compound record lists EC50 as < 0.25 µM

For Nc1nc2c(ncn2C2SC3COP(=O)(S)OC4C(O)C(n5cnc6c(N)ncnc65)C5CC54COP(=O)(O)OC2C3O)c(=O)[nH]1 (single isomer, unassigned) [Compound 1-30b] the compound record lists EC50 as > 100 µM

For COC1C2COP(=O)(O)OC3CC(c4snc5c(N)ncnc45)OC3COP(=O)(O)OC1C(n1cnc3c(=O)[nH]c(N)nc31)O2 (centres unmarked) the compound record lists EC50 as < 0.25 µM

Please examine the following record next.
For COC1C2COP(=O)(S)OC3C(COP(=O)(S)OC1C(c1snc4c(=O)[nH]c(N)nc14)O2)OC(n1cnc2c(N)ncnc21)C3F (single isomer, unassigned) [Compound 1-48a] the compound record lists EC50 as 0.25 to 100 µM

----------
- Measured on: 293T-Dual hSTING-R232 cells (Homo sapiens, UniProt Q86WV6, H232R)
- Construct: host or cells: 293T-Dual hSTING-R232 cells (HEK 293T)
- Assay notes: 293T R232 cell reporter assay (HEK 293T reporter assay)
- Type: cell-based
- Recorded conditions: digitonin 10 μg/mL, 30 min exposure, 20 h incubation, luciferase reporter, read-out: EC50 [μM] IRN-β reporter
Measured endpoint: EC50

See these solved cases before continuing.
For `Nc1nc2c(ncn2[C@H]2[C@@H]3OP(=O)(O)OC[C@H]4O[C@@H](n5cnc6c(N)ncnc65)[C@H](F)[C@@H]4OP(=O)(O)OC[C@]4(C[C@H]24)[C@H]3O)c(=O)[nH]1` the compound record lists EC50 as 0.25 to 100 µM

For Nc1nc2c(ncn2C2OC34COC2C3OP(=O)(O)OCC2OC(c3snc5c(N)ncnc35)CC2OP(=O)(O)OC4)c(=O)[nH]1 (stereo not shown) the compound record lists EC50 as 0.25 to 100 µM

For `CO[C@H]1[C@H]2OP(=O)([O-])OC[C@@]34C[C@@H]3[C@@H](n3cnc5c(N)ncnc53)[C@H](O)[C@@H]4OP(=O)([O-])OC[C@H]1O[C@H]2n1cnc2c(=O)[nH]c(N)nc21.[Na+].[Na+]` the compound record lists EC50 as < 0.25 µM

Please examine the following record next.
For COC1C2COP(=O)(O)OC3CC(c4snc5c(N)ncnc45)OC3COP(=O)(O)OC1C(n1cnc3c(=O)[nH]c(N)nc31)O2 (stereo not shown) the compound record lists EC50 as < 0.25 µM

----------
The following compounds are listed with their measured EC50 values.
- Measured on: 293T-Dual hSTING-R232 cells (Homo sapiens, UniProt Q86WV6, H232R)
- Construct: host or cells: 293T-Dual hSTING-R232 cells (HEK 293T)
- Assay notes: 293T R232 cell reporter assay (HEK 293T reporter assay)
- Type: cell-based
- Recorded conditions: EC50 [μM] IRF reporter, digitonin 10 μg/mL, 30 min exposure, 20 h incubation, alkaline phosphatase reporter

For Nc1ncnc2c1ncn2[C@H]1[C@H](O)[C@@H]2O[P@@](=O)([S][Na])OC[C@H]3O[C@@H](n4cnc5c(=O)[nH]cnc54)[C@H](F)[C@@H]3OP(=O)(O)OC[C@@]23C[C@H]13 [Compound 1-20b] the compound record lists EC50 as < 0.25 µM

For Nc1nc2c(ncn2[C@H]2[C@H](O)[C@@H]3OP(=O)(O)OC[C@]45C[C@@H]4[C@@H](n4cnc6c(N)ncnc64)[C@H](O)[C@@H]5O[P@@](=O)([S][Na])OC[C@@]34C[C@H]24)c(=O)[nH]1 [Compound 1-38b] the compound record lists EC50 as > 100 µM

For Nc1ncnc2c1ncn2[C@H]1[C@H](O)[C@@H]2O[P@@](=O)([S][Na])OC[C@H]3O[C@@H](n4cnc5c(N)ncnc54)[C@H](OP(=O)(O)OC[C@@]24C[C@H]14)[C@@H]3O [Compound 1-15b] the compound record lists EC50 as 0.25 to 100 µM

For Nc1ncnc2c1ncn2[C@H]1[C@H](O)[C@@H]2O[P@](=O)([S][Na])OC[C@H]3O[C@@H](n4cnc5c(=O)[nH]cnc54)[C@H](F)[C@@H]3OP(=O)(O)OC[C@@]23C[C@H]13 [Compound 1-20a] the compound record lists EC50 as 0.25 to 100 µM

Please examine the following record next.
For Nc1ncnc2c1ncn2[C@H]1[C@H](O)[C@@H]2O[P@](=O)([S][Na])OC[C@H]3O[C@@H](n4cnc5c(N)ncnc54)[C@H](OP(=O)(O)OC[C@@]24C[C@H]14)[C@@H]3O [Compound 1-15a] the compound record lists EC50 as > 100 µM

----------
- Measured on: 293T-Dual hSTING-R232 cells (Homo sapiens, UniProt Q86WV6, H232R)
- Construct: host or cells: 293T-Dual hSTING-R232 cells (HEK 293T)
- Assay notes: 293T R232 cell reporter assay (HEK 293T reporter assay)
- Assay type: cell-based
- Recorded conditions: EC50 [μM] IRF reporter, digitonin 10 μg/mL, 30 min exposure, 20 h incubation, alkaline phosphatase reporter
Measured endpoint: EC50

For Nc1nc2c(ncn2[C@H]2[C@H](O)[C@@H]3OP(=O)(O)OC[C@H]4O[C@@H](n5cnc6c(N)ncnc65)[C@H](F)[C@@H]4O[P@](=O)([S][Na])OC[C@@]34C[C@H]24)c(=O)[nH]1 [Compound 1-19a] the compound record lists EC50 as 0.25 to 100 µM

Next:
For CO[C@H]1[C@H]2OP(=O)(O)OC[C@]34C[C@@H]3[C@@H](n3cnc5c(N)ncnc53)[C@H](O)[C@@H]4O[P@](=O)([S][Na])OC[C@H]1O[C@H]2n1cnc2c(=O)[nH]c(N)nc21 [Compound 1-10a] the compound record lists EC50 as 0.25 to 100 µM

----------
- Measured on: 293T-Dual hSTING-R232 cells (Homo sapiens, UniProt Q86WV6, H232R)
- Construct: host or cells: 293T-Dual hSTING-R232 cells (HEK 293T)
- Assay notes: 293T R232 cell reporter assay (HEK 293T reporter assay)
- Format: cell-based
- Recorded conditions: digitonin 10 μg/mL, 30 min exposure, 20 h incubation, luciferase reporter, read-out: EC50 [μM] IRN-β reporter
The following compounds are listed with their measured EC50 values.

See these solved cases before continuing.
For COC1C2COP(=O)(S)OC3C(COP(=O)(S)OC1C(c1snc4c(=O)[nH]c(N)nc14)O2)OC(n1cnc2c(N)ncnc21)C3F (single isomer, unassigned) [Compound 1-48a] the compound record lists EC50 as 0.25 to 100 µM

For COC1C2COP(=O)(S)OC3C(O)C(n4cnc5c(N)ncnc54)C4CC43COP(=O)(S)OC1C(n1cnc3c(=O)[nH]c(N)nc31)O2 (single isomer, unassigned) the compound record lists EC50 as 0.25 to 100 µM

For Nc1nc2c(ncn2C2SC3COP(=O)(S)OC4C(O)C(n5cnc6c(N)ncnc65)C5CC54COP(=O)(O)OC2C3O)c(=O)[nH]1 (single isomer, unassigned) [Compound 1-30b] the compound record lists EC50 as > 100 µM

For `CO[C@H]1[C@H]2OP(=O)(O)OC[C@@]34C[C@@H]3[C@@H](n3ccc5c(N)ncnc53)[C@H](O)[C@@H]4OP(=O)(O)OC[C@H]1O[C@H]2n1cnc2c(=O)[nH]c(N)nc21` the compound record lists EC50 as < 0.25 µM

Please examine the following record next.
For COC1C2COP(=O)(O)OC3C(COP(=O)(O)OC1C(c1scc4c(=O)[nH]c(N)nc14)O2)OC(n1cnc2c(N)ncnc21)C3F (centres unmarked) the compound record lists EC50 as < 0.25 µM

----------
- Measured on: 293T-Dual hSTING-R232 cells (Homo sapiens, UniProt Q86WV6, H232R)
- Construct: host or cells: 293T-Dual hSTING-R232 cells (HEK 293T)
- Assay notes: 293T R232 cell reporter assay (HEK 293T reporter assay)
- Format: cell-based
- Recorded conditions: digitonin 10 μg/mL, 30 min exposure, 20 h incubation, luciferase reporter, read-out: EC50 [μM] IRN-β reporter
The following compounds are listed with their measured EC50 values.

Sample COC1C2COP(=O)(S)OC3C(COP(=O)(O)OC1C(n1cnc4c(=O)[nH]c(N)nc41)O2)C1CC1(n1cnc2c(N)ncnc21)C3O (centres unmarked) [Compound 1-16a] , system: 293T-Dual hSTING-R232 cells (Homo sapiens, UniProt Q86WV6, H232R). Its EC50 is 0.25 to 100 µM

Sample Nc1ncnc2c1ncn2C1OC2COP(=O)(S)OC3C(O)C(n4cnc5c(N)ncnc54)C4CC43COP(=O)(S)OC1C2O (single isomer, unassigned) [Compound 1-14b] , system: 293T-Dual hSTING-R232 cells (Homo sapiens, UniProt Q86WV6, H232R). Its EC50 is > 100 µM

Sample `CO[C@H]1[C@H]2OP(=O)(O)OC[C@@]34C[C@@H]3[C@@H](n3cnc5c(N)ncnc53)[C@H](OP(=O)(O)OC[C@H]1O[C@H]2n1cnc2c(=O)[nH]c(N)nc21)[C@@H]4O` , system: 293T-Dual hSTING-R232 cells (Homo sapiens, UniProt Q86WV6, H232R). Its EC50 is > 100 µM

Next:
Sample CO[C@H]1[C@H]2OP(=O)(O)OC[C@]34C[C@@H]3[C@@H](n3cnc5c(N)ncnc53)[C@H](O)[C@@H]4O[P@@](=O)(S)OC[C@H]1O[C@H]2n1nnc2c(=O)[nH]c(N)nc21 [Compound 1-35b] , system: 293T-Dual hSTING-R232 cells (Homo sapiens, UniProt Q86WV6, H232R). Its EC50 is 0.25 to 100 µM

Sample COC1C2COP(=O)(S)OC3C(COP(=O)(S)OC1C(c1snc4c(=O)[nH]c(N)nc14)O2)OC(n1cnc2c(N)ncnc21)C3F (single isomer, unassigned) [Compound 1-48b] , system: 293T-Dual hSTING-R232 cells (Homo sapiens, UniProt Q86WV6, H232R). Its EC50 is < 0.25 µM
